Field: Paw edema, percent change of vehicle. Provide a value for each of the compounds that follow.
# Tested on: Lewis rats
# method_notes: Carrageenan-induced rat paw edema model (paw edema and pain sensitivity)
# Assay type: in vivo
# reported_conditions: 1 hr; 100 mg/kg oral 1 hr after carrageenan; female Lewis rats
Marks after values point to notes of the source that are not given here.

Take a look at these entries with their results.
OC[C@H]1O[C@@H](Oc2cc(O)cc(/C=C/c3ccc(O[C@@H]4O[C@H](CO)[C@@H](O)[C@H](O)[C@H]4O)cc3O)c2)[C@H](O)[C@@H](O)[C@@H]1O [Mulberoside A, mulberroside A] : 48.4* %
CC(C)=CCc1c(-c2ccc(O)cc2O)oc2c(C3C=C(C)CC(c4ccc(O)cc4O)C3C(=O)c3ccc(O)cc3O)c(O)cc(O)c2c1=O (stereo not shown) : 36.5* %
CC(C)=CCc1c(-c2ccc(O)cc2O)oc2c3c(cc(O)c2c1=O)OC(C)(C)C=C3 : 37.3* %

### Prompt // Paw edema, percent change of vehicle lookup, key: Oc1cc(O)cc(/C=C/c2ccc(O)cc2O)c1
### Response 44.7* %
